B1: KRT13 (parent)
chain: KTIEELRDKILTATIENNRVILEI

Variants of: B1
Method: protein stability index of a GFP-peptide fusion (GPS, HEK-293T) (PSI 1-6); higher = more stable;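 further: lentivirally expressed fusions sorted by FACS into six bins by GFP to DsRed ratio, PSI derived from sequencing read proportions per bin multiplied by bin number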
Reported conditions: c terminus: a fixed tail appended
Measured metric: protein stability index

variant_designation=L6I measured_metric="protein stability index" numeric_result=2.5
variant_designation=E5M measured_metric="protein stability index" numeric_result=4.08
variant_designation=T12H measured_metric="protein stability index" numeric_result=2.66
variant_designation=K1S measured_metric="protein stability index" numeric_result=3.17
variant_designation=E16S measured_metric="protein stability index" numeric_result=2.3
variant_designation=K1D measured_metric="protein stability index" numeric_result=2.31
variant_designation=R19M measured_metric="protein stability index" numeric_result=2.14
variant_designation=K9G measured_metric="protein stability index" numeric_result=2.21
variant_designation=A13V measured_metric="protein stability index" numeric_result=3
variant_designation=E23I measured_metric="protein stability index" numeric_result=2.71
variant_designation=R19D measured_metric="protein stability index" numeric_result=2.11
variant_designation=R19H measured_metric="protein stability index" numeric_result=3.1
variant_designation=E4M measured_metric="protein stability index" numeric_result=1.7
variant_designation=I21N measured_metric="protein stability index" numeric_result=1.64
variant_designation=I10S measured_metric="protein stability index" numeric_result=2.2
variant_designation=K1N measured_metric="protein stability index" numeric_result=2.48
variant_designation=E5W measured_metric="protein stability index" numeric_result=2.82
variant_designation=L6A measured_metric="protein stability index" numeric_result=1.94
variant_designation=V20F measured_metric="protein stability index" numeric_result=1.8
variant_designation=N18G measured_metric="protein stability index" numeric_result=2.33
variant_designation=E16W measured_metric="protein stability index" numeric_result=3.31
variant_designation=L11T measured_metric="protein stability index" numeric_result=1.91
variant_designation=I10K measured_metric="protein stability index" numeric_result=1.55
variant_designation=R19P measured_metric="protein stability index" numeric_result=2.25
variant_designation=E23Q measured_metric="protein stability index" numeric_result=2.47
variant_designation=T2L measured_metric="protein stability index" numeric_result=2.35
variant_designation=N18H measured_metric="protein stability index" numeric_result=2.65
variant_designation=I3E measured_metric="protein stability index" numeric_result=2.13
variant_designation=L6M measured_metric="protein stability index" numeric_result=1.98
variant_designation=E23W measured_metric="protein stability index" numeric_result=2.9
variant_designation=L6T measured_metric="protein stability index" numeric_result=2.46
variant_designation=K1C measured_metric="protein stability index" numeric_result=1.99
variant_designation=I24N measured_metric="protein stability index" numeric_result=2.64
variant_designation=I15K measured_metric="protein stability index" numeric_result=3.7
variant_designation=T2H measured_metric="protein stability index" numeric_result=1.86
variant_designation=T2K measured_metric="protein stability index" numeric_result=2.6
variant_designation=I21Y measured_metric="protein stability index" numeric_result=2.79
variant_designation=K9D measured_metric="protein stability index" numeric_result=2.24
variant_designation=I10M measured_metric="protein stability index" numeric_result=2.3
variant_designation=I3F measured_metric="protein stability index" numeric_result=3.37
variant_designation=K1F measured_metric="protein stability index" numeric_result=3.36
variant_designation=I3K measured_metric="protein stability index" numeric_result=2.09
variant_designation=V20P measured_metric="protein stability index" numeric_result=1.78
variant_designation=E16M measured_metric="protein stability index" numeric_result=2.72
variant_designation=K1R measured_metric="protein stability index" numeric_result=1.6
variant_designation=V20L measured_metric="protein stability index" numeric_result=3.48
